Where these numbers come from: PubChem BioAssay (NCATS)

System: CP238
Experiment: qHTS profiling for inhibitors of Plasmodium falciparum proliferation (AID 504749); also: nearly all actives have a fitted effect of over 60% in size
Conditions: P. falciparum in erythrocytes, SYBR Green DNA, 72 h; series mostly up to 28.7 µM
Inconclusive results are not listed. The source made the active and inactive calls. Calls follow the shape of the dose curve; as a rule, active = well fitted inhibition curve with a large enough effect; inconclusive = small, poorly fitted or top-dose-only effect; inactive = flat fitted curve, though single readings scatter.
Result category, one only: active, inactive

C#CCN(C)[C@@H](C)Cc1ccccc1: inactive

Give the logged outcome of this assay for the following molecule: CNC(C)[C@@H](O)c1ccc(O)cc1 (some centres not stated)
inactive

Give the logged outcome of this assay for the following molecule: C=CC1CN2CCC1CC2C(OC(=O)OCC)c1ccnc2ccc(OC)cc12 (configuration not stated)
active

Give the logged outcome of this assay for the following molecule: "CN(C)C(=O)Oc1cc(OC(=O)N(C)C)cc([C@@H](O)CNC(C)(C)C)c1"
inactive

Give the logged outcome of this assay for the following molecule: "CNC[C@H](O)c1ccc(O)cc1"
inactive

Give the logged outcome of this assay for the following molecule: "C[C@@H]1O[C@H](O[C@@H]2C=C3CC[C@H]4[C@@H](CC[C@]5(C)[C@@H](c6ccc(=O)oc6)CC[C@]45O)[C@@]3(C)CC2)[C@@H](O)[C@H](O)[C@@H]1O"
inactive

----------
Experiment: qHTS for Activators of p53 Stress Response Pathway screened against the NCATS CANVASS Library (AID 1347388); as to activation: 0% is about no effect
Conditions: p53RE-bla HCT-116, beta-lactamase reporter, 16 h; series mostly up to 46.1 µM
Results filed as inconclusive are left out. Active and inactive are the calls of the source. Calls follow the shape of the dose curve; as a rule, active = well fitted activation curve with a large enough effect; inconclusive = small, poorly fitted or top-dose-only effect; inactive = flat fitted curve, though single readings scatter.
Result category, one only: label 1 for active, label 0 for inactive

C/C=C(\C)C(=O)O[C@@H]1[C@@H](O)[C@@H]2O[C@H]3[C@H](O[C@@H](CCCCC)CCCCCCC(=O)CCC(=O)OC[C@@H](O2)[C@H]1OC(=O)/C=C/c1ccccc1)O[C@H](C)[C@H](OC(C)=O)[C@@H]3O: label 0
C[N+](C)(C)CCc1c[nH]c2ccccc12: label 0
C=C[C@]12C=CCN3CC[C@@]4(c5ccccc5NC(=O)[C@@H]4C1)[C@@H]32: label 0
CCCCC1CC[C@H]2CCCC(CCC)N12 (some centres undefined): label 0

Give the logged outcome of this assay for the following molecule: C[C@]12CCC3[C@@H](CC[C@@H]4C[C@@H](O)CC[C@]34CO)[C@@]1(O)CC[C@@H]2C1=CC(=O)OC1 (some centres undefined)
label 0

Give the logged outcome of this assay for the following molecule: "CCCC[C@@H](C)/C=C1/CN2CCC[C@H]2[C@@](C)(O)[C@@H]1O"
label 0

Give the logged outcome of this assay for the following molecule: "CC[C@H]1CN2CCc3c([nH]c4cccc(OC)c34)[C@@H]2C[C@@H]1/C(=C\OC)C(=O)OC"
label 0

Give the logged outcome of this assay for the following molecule: "C/C=C1/CN2CC[C@]34C(=C(C(=O)OC)[C@H]1C[C@H]23)Nc1ccccc14"
label 0

Give the logged outcome of this assay for the following molecule: "CO[C@H]([C@@H](C)[C@H]1O[C@]1(C)C[C@H](C)/C=C/C=C(\C)[C@H]1O[C@@H](CC(=O)O)CC[C@@H]1C)[C@@H](C)O"
label 1

----------
Test: Primary qHTS for inhibitors of MERS-S pseudo-typed particle cell entry (AID 1479149); also: nearly all actives have a fitted effect of over 60% in size
Settings: MERS-S pseudotyped particle entry, luciferase; series mostly up to 57.1 µM
Results filed as inconclusive are left out. The source made the active and inactive calls. Calls follow the shape of the full dose curve.
Endpoint label: outcome

O=C[C@H](O)[C@@H](O)[C@H](O)[C@H](O)CO: inactive
Cc1c(C)c2c(c(C)c1OC(=O)CCC(=O)O)CC[C@@](C)(CCC[C@H](C)CCC[C@H](C)CCCC(C)C)O2: inactive
CN(C(=O)CO)c1c(I)c(C(=O)NCC(O)CO)c(I)c(C(=O)NCC(O)CO)c1I (stereo not given): inactive
COc1cc(C[C@@H]2NCCc3cc(O)c(O)cc32)cc(OC)c1OC: inactive

Consider the additional compound presented here.
What the record says about "CCCCC/C=C\C/C=C\C/C=C\CCCCC(=O)O" : outcome is inactive
